From: patent US12624039B2

PROCEDURE SUMMARY: DMSO solubility
Type: physicochemical
STUDY CONDITIONS: kinetic from dmso stock
So I've got a bunch of compounds here, and I need their solubility values.
Numbers only, in µM.

# count of solved cases: 3
- COMPOUND: "Nc1nccn2c(C3CCC(CO)OC3)nc(-c3ccc(Oc4ccccc4)cc3)c12 (stereo not drawn)"
  UNIT TEXT: "µM"
  solubility: 51.3
- COMPOUND: "Nc1nccn2c(C3CCC(CO)OC3)nc(-c3ccc(Oc4ccccc4)c(F)c3F)c12 (single isomer, unassigned)"
  UNIT TEXT: "µM"
  solubility: 63.1
- COMPOUND: "Nc1ncnn2c(C3CCC(CO)OC3)nc(-c3ccc(Oc4cccc(F)c4F)cc3)c12 (stereo not drawn)"
  UNIT TEXT: "µM"
  solubility: 48

Shift focus to the following entry.
Request: Given the compound Nc1nccn2c(C3CCC(CO)OC3)nc(-c3ccc(Oc4cccc(F)c4F)cc3)c12 (single isomer, unassigned) , what is its reported solubility?
Result: 43.9
